# test_target: T1, rhesus CD11a (rhesus) (UniProt H9Z8N3)
# T1 sequence: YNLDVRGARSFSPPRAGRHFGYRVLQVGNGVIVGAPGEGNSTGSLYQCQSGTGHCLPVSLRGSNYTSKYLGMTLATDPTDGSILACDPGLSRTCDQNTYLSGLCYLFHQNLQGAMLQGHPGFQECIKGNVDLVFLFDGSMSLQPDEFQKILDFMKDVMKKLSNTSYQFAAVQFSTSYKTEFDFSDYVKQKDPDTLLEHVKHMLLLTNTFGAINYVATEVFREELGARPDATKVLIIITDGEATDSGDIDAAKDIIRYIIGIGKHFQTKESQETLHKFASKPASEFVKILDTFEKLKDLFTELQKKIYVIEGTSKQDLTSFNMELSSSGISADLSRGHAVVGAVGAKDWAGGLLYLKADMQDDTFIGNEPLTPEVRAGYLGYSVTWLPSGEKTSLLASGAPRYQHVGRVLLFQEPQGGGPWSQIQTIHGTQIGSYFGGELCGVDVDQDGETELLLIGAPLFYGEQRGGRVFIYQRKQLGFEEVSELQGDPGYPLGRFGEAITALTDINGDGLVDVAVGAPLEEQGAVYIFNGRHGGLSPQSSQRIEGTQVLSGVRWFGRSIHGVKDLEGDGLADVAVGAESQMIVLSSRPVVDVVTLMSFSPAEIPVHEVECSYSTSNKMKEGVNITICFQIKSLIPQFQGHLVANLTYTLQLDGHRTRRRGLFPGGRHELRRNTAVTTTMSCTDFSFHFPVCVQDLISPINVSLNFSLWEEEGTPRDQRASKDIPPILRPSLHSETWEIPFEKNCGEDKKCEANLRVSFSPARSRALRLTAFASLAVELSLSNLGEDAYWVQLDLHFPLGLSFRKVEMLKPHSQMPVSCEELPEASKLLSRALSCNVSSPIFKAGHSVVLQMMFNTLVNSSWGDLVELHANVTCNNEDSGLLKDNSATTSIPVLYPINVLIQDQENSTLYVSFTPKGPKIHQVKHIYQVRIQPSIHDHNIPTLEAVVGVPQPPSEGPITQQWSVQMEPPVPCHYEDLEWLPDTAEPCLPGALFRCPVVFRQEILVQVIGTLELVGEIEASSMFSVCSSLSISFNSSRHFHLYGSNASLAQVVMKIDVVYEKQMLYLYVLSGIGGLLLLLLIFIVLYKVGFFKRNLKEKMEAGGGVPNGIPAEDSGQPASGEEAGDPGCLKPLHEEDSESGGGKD
# protocol: binding to rhesus peripheral blood lymphocytes
Response field label takes Fulfilled when Var.EC50/HuIgG1 EC50 is strictly below 0.7 and Not fulfilled in all other cases.

Solved cases below.
binder	cat
SerL52Ala variant IgG1 (antibody, V domains shown) VH: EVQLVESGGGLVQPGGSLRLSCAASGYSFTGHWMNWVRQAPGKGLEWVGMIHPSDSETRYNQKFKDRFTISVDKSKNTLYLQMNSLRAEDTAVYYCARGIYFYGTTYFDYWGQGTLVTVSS VL: DIQMTQSPSSLSASVGDRVTITCRASKTISKYLAWYQQKPGKAPKLLIYSGATLQSGVPSRFSGSGSGTDFTLTISSLQPEDFATYYCQQHNEYPLTFGQGTKVEIKR	Not fulfilled
LysH64Ala variant IgG1 (antibody, V domains shown) VH: EVQLVESGGGLVQPGGSLRLSCAASGYSFTGHWMNWVRQAPGKGLEWVGMIHPSDSETRYNQKFADRFTISVDKSKNTLYLQMNSLRAEDTAVYYCARGIYFYGTTYFDYWGQGTLVTVSS VL: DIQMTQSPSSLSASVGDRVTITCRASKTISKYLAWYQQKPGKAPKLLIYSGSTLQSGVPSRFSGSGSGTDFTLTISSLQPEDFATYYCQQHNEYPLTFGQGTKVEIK	Not fulfilled
AsnL92Ala variant IgG1 (antibody, V domains shown) VH: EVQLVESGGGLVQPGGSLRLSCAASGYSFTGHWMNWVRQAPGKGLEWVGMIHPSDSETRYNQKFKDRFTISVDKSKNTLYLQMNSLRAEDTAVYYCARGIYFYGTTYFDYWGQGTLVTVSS VL: DIQMTQSPSSLSASVGDRVTITCRASKTISKYLAWYQQKPGKAPKLLIYSGSTLQSGVPSRFSGSGSGTDFTLTISSLQPEDFATYYCQQHAEYPLTFGQGTKVEIKR	Not fulfilled

Now consider a different binder.
-- ask Var.EC50/HuIgG1 EC50 under 0.7? Item: H2C14 variant IgG1 (antibody, V domains shown) VH: EVQLVESGGGLVQPGGSLRLSCAASGYSFTGHWMNWVRQAPGKGLEWVGMIAPASSATRYNQKFKDRFTISVDKSKNTLYLQMNSLRAEDTAVYYCARGIYFYGTTYFDYWGQGTLVTVSS VL: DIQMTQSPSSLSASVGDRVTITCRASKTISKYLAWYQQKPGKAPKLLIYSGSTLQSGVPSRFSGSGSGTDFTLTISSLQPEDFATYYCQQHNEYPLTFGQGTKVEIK
-- reply Fulfilled
